Molecular target: YwfG28–270 (L-type lectin domain of YwfG) (Lactococcus lactis subsp. lactis, UniProt S6FKX6)
Sequence (S6FKX6 entry or part of it): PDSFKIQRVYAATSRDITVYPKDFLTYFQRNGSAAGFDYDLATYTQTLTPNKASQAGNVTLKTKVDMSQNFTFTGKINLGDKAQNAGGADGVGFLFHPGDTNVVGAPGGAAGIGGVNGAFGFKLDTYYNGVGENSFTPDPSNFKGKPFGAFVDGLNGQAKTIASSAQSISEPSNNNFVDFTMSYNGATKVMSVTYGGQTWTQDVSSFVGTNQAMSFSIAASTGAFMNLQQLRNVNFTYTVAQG
Test: Isothermal titration calorimetry (ITC) of sugars, mannan and mannoproteins against YwfG28–270
Format: binding, Lactococcus lactis subsp. lactis G50
measured.parameter: pKd
# reply with the number alone; pKd is -log10 of concentration in mol/L

## Input // pKd lookup, key: OC[C@H]1OC(O)[C@@H](O)[C@@H](O)[C@@H]1O (stereo partly drawn) [D-mannose]
## Output 3.30

====

Target: YwfG28–270 (L-type lectin domain of YwfG) (Lactococcus lactis subsp. lactis, UniProt S6FKX6)
Experiment: Isothermal titration calorimetry (ITC) of sugars, mannan and mannoproteins against YwfG28–270
Format: binding, Lactococcus lactis subsp. lactis G50
Settings: ITC, 25°C, 100 μM YwfG28–270 in 20 mM Tris-HCl pH 7.5; D-mannose: fixed stoichiometry (N = 1)
measured.parameter: N (sites), stoichiometry
Write it as a number; the unit sites goes unstated.

Worked set:
molecule	measured.parameter	reading
OC[C@H]1O[C@H](O[C@H]2[C@H](O)[C@H](O)C(O)O[C@@H]2CO)[C@@H](O)[C@@H](O)[C@@H]1O (some centres unmarked)	N (sites), stoichiometry	1.82
OC[C@H]1O[C@H](O[C@@H]2C(O)O[C@H](CO)[C@@H](O)[C@@H]2O)[C@@H](O)[C@@H](O)[C@@H]1O (some centres unmarked)	N (sites), stoichiometry	1.19
OC[C@H]1O[C@H](O[C@H]2[C@H](O)[C@@H](CO)OC(O)[C@H]2O)[C@@H](O)[C@@H](O)[C@@H]1O (some centres unmarked)	N (sites), stoichiometry	0.757

Let us examine a further case.
## Input Reported N (sites), stoichiometry for `OC[C@H]1O[C@H](OC[C@H]2O[C@H](O)[C@@H](O)[C@@H](O)[C@@H]2O)[C@@H](O)[C@@H](O)[C@@H]1O` : what is it?
## Output 1.21

====

Molecular target: YwfG28–270 (L-type lectin domain of YwfG) (Lactococcus lactis subsp. lactis)
Assay: Isothermal titration calorimetry (ITC) of sugars, mannan and mannoproteins against YwfG28–270
Assay type: binding, Lactococcus lactis subsp. lactis G50
Settings: ITC, 25°C, YwfG28–270; D-mannose: fixed stoichiometry (N = 1)
measured.parameter: ΔH, enthalpy change

molecule	tested.system	reading
OC[C@H]1O[C@H](O[C@H]2[C@H](O)[C@H](O)C(O)O[C@@H]2CO)[C@@H](O)[C@@H](O)[C@@H]1O (some centres unmarked)	YwfG28–270 (L-type lectin domain of YwfG) (Lactococcus lactis subsp. lactis)	-2.206 ± 0.3097 kcal/mol
OC[C@H]1OC(O)[C@@H](O)[C@@H](O)[C@@H]1O (some centres unmarked)	YwfG28–270 (L-type lectin domain of YwfG) (Lactococcus lactis subsp. lactis)	-2.098 ± 0.08359 kcal/mol
OC[C@H]1O[C@H](OC[C@H]2O[C@H](O)[C@@H](O)[C@@H](O)[C@@H]2O)[C@@H](O)[C@@H](O)[C@@H]1O	YwfG28–270 (L-type lectin domain of YwfG) (Lactococcus lactis subsp. lactis)	-4.235 ± 0.3728 kcal/mol
OC[C@H]1O[C@H](O[C@@H]2C(O)O[C@H](CO)[C@@H](O)[C@@H]2O)[C@@H](O)[C@@H](O)[C@@H]1O (some centres unmarked)	YwfG28–270 (L-type lectin domain of YwfG) (Lactococcus lactis subsp. lactis)	-5.236 ± 0.06207 kcal/mol

# input for lookup
## Input Would you kindly share the measured ΔH, enthalpy change for OC[C@H]1O[C@H](O[C@H]2[C@H](O)[C@@H](CO)OC(O)[C@H]2O)[C@@H](O)[C@@H](O)[C@@H]1O (some centres unmarked) ?
## Output -6.073 ± 1.387 kcal/mol

====

Biological target: YwfG28–270 (L-type lectin domain of YwfG) (Lactococcus lactis subsp. lactis, UniProt S6FKX6)
Assay: Isothermal titration calorimetry (ITC) of sugars, mannan and mannoproteins against YwfG28–270
Type: binding, Lactococcus lactis subsp. lactis G50
Conditions: ITC, 25°C, YwfG28–270; D-mannose: fixed stoichiometry (N = 1)
Description: […]
Threshold 3 cal/mol/deg. ΔS, entropy change below it: MET. ΔS, entropy change at it or above: NOT MET.

compound	group
OC[C@H]1O[C@H](OC[C@H]2O[C@H](O)[C@@H](O)[C@@H](O)[C@@H]2O)[C@@H](O)[C@@H](O)[C@@H]1O	MET
OC[C@H]1O[C@H](O[C@H]2[C@H](O)[C@@H](CO)OC(O)[C@H]2O)[C@@H](O)[C@@H](O)[C@@H]1O (some centres unmarked)	MET
OC[C@H]1O[C@H](O[C@H]2[C@H](O)[C@H](O)C(O)O[C@@H]2CO)[C@@H](O)[C@@H](O)[C@@H]1O (some centres unmarked)	NOT MET
OC[C@H]1OC(O)[C@@H](O)[C@@H](O)[C@@H]1O (some centres unmarked)	NOT MET

Now for a further compound.
## Input Problem: For the compound OC[C@H]1O[C@H](O[C@@H]2C(O)O[C@H](CO)[C@@H](O)[C@@H]2O)[C@@H](O)[C@@H](O)[C@@H]1O (some centres unmarked) , is ΔS, entropy change under 3 cal/mol/deg?
## Output MET

====

System: yeast X2180-1A
Assay: Inhibition by sugars of yeast cell aggregation induced by YwfG variants
Type: cell-based, Saccharomyces cerevisiae
Settings: sugar 1 mM as printed
measured.parameter: Inhibition of aggregation induced by YwfG28–511

compound	reading
OC[C@H]1O[C@H](OC[C@H]2O[C@H](O)[C@@H](O)[C@@H](O)[C@@H]2O)[C@@H](O)[C@@H](O)[C@@H]1O [α-1,6-mannobiose]	weakly inhibited
OC[C@H]1O[C@H](O[C@H]2[C@H](O)[C@@H](CO)OC(O)[C@H]2O)[C@@H](O)[C@@H](O)[C@@H]1O (stereo partly drawn) [α-1,3-mannobiose]	weakly inhibited
OC[C@H]1O[C@H](O[C@H]2[C@H](O)[C@H](O)C(O)O[C@@H]2CO)[C@@H](O)[C@@H](O)[C@@H]1O (stereo partly drawn) [α-1,4-mannobiose]	weakly inhibited
